# Measured On: T1, human [1-305]-mouse chimeric EL (human; mouse, UniProt Q9WVG5 306-500)
# T1 construct: Heparin extract, captured or detected by an anti-C2-tag antibody; also called human-mouse chimeric EL
# T1 sequence: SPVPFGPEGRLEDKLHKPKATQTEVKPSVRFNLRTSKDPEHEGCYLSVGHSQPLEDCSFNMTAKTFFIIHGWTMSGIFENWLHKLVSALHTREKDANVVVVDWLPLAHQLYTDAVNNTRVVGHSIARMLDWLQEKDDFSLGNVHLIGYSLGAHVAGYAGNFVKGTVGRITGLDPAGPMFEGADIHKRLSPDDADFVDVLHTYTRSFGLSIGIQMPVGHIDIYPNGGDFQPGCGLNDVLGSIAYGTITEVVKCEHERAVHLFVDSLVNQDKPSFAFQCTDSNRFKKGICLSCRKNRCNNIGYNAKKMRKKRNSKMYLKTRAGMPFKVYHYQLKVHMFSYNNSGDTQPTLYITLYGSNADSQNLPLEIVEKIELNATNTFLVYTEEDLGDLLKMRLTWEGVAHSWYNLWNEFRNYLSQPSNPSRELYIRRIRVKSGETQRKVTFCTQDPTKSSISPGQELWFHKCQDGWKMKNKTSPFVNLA
# Experiment: Biacore; EL captured by anti-C2-tag Ab; bivalent fit
# Experimental: The binding affinities of anti-EL antibodies were measured using Biacore. […] Then, anti-EL humanized antibodies were added and the binding affinities were calculated by bivalent fitting of BIAevaluation software.
Result Type: pKd
Reminder that pKd means the negative base-10 logarithm of the concentration expressed in mol/L.

Binder	Result Type	Test Value
h16B3-F3 (antibody, V domains shown, humanized) VH: EVQLVESGGGLVQPGGSLRLSCAASGFTFSGYTMSWVRQAPGKGLEWVSEISFARDRAFYPDTVKGRFTISRDNSKNTLYLQMNSLRAEDTAVYYCARLGGRNHDYWYFDVWGQGTTVTVSS VL: EIVLTQSPGTLSLSPGERATLSCRASESVEYYGTSLMQWYQQKPGQAPRLLIYAASNVESGIPDRFSGSGSGTDFTLTISRLEPEDFAVYYCQQSWKVPFTFGQGTKLEIK	pKd	8.00
h16B3-F1 (antibody, V domains shown, humanized) VH: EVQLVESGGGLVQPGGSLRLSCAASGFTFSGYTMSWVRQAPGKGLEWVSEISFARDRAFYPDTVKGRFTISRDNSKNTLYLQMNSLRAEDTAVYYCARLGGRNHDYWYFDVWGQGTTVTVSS VL: DIQMTQSPSSLSASVGDRVTITCRASESVEYYGTSLMQWYQQKPGKAPKLLIYAASNVESGVPSRFSGSGSGTDFTLTISSLQPEDFATYYCQQSWKVPFTFGQGTKLEIK	pKd	8.28
h55A1-F2 (antibody, V domains shown, humanized) VH: QVQLVQSGAEVKKPGASVKVSCKASGYTFTNYGMNWVRQAPGQGLEWMGWINTYSGVPTYAGDFKGRVTMTTDTSTSTAYMELRSLRSDDTAVYYCARRGYYGRRYFDVWGKGTTVTVSS VL: EIVMTQSPATLSVSPGERATLSCKASQSVDYDVDSYMHWYQQKPGQAPRLLIYAASNLASGIPARFSGSGSGTEFTLTISSLQSEDFAVYYCQQTIEDPPTFGGGTKVEIK	pKd	9.77
h55A1-S6 (antibody, V domains shown, humanized) VH: QVQLVQSGSELKKPGASVKVSCKASGYTFTNYALNWVRQAPGQGLEWMGWINTYSGVGTYAGEFKGRFVFSLDTSVSTAYLQISSLKAEDTAVYYCARRGFYGRRFFDVWGKGTTVTVSS VL: DIVLTQSPASLAVSPGQRATITCKASQSVDYDVDSYMHWYQQKPGQPPKLLIYAASNLASGVPARFSGSGSGTDFTLTINPVEANDTANYYCQQTIEDPPTFGGGTKVEIK	pKd	8.85

Please find the next binder below.
h55A1-F1 (antibody, V domains shown, humanized) VH: QVQLVQSGSELKKPGASVKVSCKASGYTFTNYGMNWVRQAPGQGLEWMGWINTYSGVPTYAGDFKGRFVFSLDTSVSTAYLQISSLKAEDTAVYYCARRGYYGRRYFDVWGKGTTVTVSS VL: DIQLTQSPSSLSASVGDRVTITCKASQSVDYDVDSYMHWYQQKPGKAPKLLIYAASNLASGVPSRFSGSGSGTDFTFTISSLQPEDIATYYCQQTIEDPPTFGGGTKVEIK has a reported pKd of 10.08

// provenance: patent US20200071424A1
